B1: EHMT1 (parent)
chain: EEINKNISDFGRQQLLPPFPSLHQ

variants of: B1; assay: protein stability index of a GFP-peptide fusion (GPS, HEK-293T) (PSI 1-6); higher = more stable; details: c terminus: a fixed tail appended;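 further: lentivirally expressed fusions sorted by FACS into six bins by GFP to DsRed ratio, PSI derived from sequencing read proportions per bin multiplied by bin number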
PROPERTY: protein stability index

| MUTANT LABEL | VALUE MEASURED |
| --- | --- |
| D9A | 2.38 |
| I3Q | 2.69 |
| L16R | 3.23 |
| Q13P | 3.4 |
| P17G | 2.83 |
| N6A | 2.85 |
| E2F | 1.74 |
| L16M | 2.79 |
| F19G | 4.05 |
| Q14E | 3 |
| S8P | 3.12 |
